Where do the numbers come from? From paper PMC7575488.

assay: Blood pharmacokinetics (dried blood spot LC-MS/MS, non-compartmental analysis); assay type: in vivo, human; conditions: human, whole blood, oral, 200 mg, 200 mg BID, Cycle 1 Day 15 (multiple dose), blood, N = 7; tlast 12 h (AUCτ); geometric mean (% CV); read-out: AUC0-tlast
value-kind: AUC(0-t) (ng·h/mL)
Your answer is read as ng·h/mL, so omit the unit and give the number.

Reported AUC(0-t) for CO[C@@H](C)Cn1c(=O)n(C)c2cnc3ccc(-c4cncc(C(C)(C)O)c4)cc3c21 was 4100

---

test: Blood pharmacokinetics (dried blood spot LC-MS/MS, non-compartmental analysis); format: in vivo, human; details: human, whole blood, oral, 150 mg, 150 mg BID, Cycle 1 Day 15 (multiple dose), blood, N = 3; median (range); read-out: tmax
value-kind: Tmax (h)
Your answer is read as h, so omit the unit and give the number.

Reported Tmax for CO[C@@H](C)Cn1c(=O)n(C)c2cnc3ccc(-c4cncc(C(C)(C)O)c4)cc3c21 [LY3023414] was 1

---

assay: Blood pharmacokinetics (dried blood spot LC-MS/MS, non-compartmental analysis); assay type: in vivo, human; conditions: human, whole blood, oral, 150 mg, 150 mg BID, Cycle 1 Day 1 (single dose), blood, N = 3; median (range); read-out: tmax
value-kind: Tmax (h)
Your answer is read as h, so omit the unit and give the number.

Reported Tmax for CO[C@@H](C)Cn1c(=O)n(C)c2cnc3ccc(-c4cncc(C(C)(C)O)c4)cc3c21 was 2.93

---

experiment: Blood pharmacokinetics (dried blood spot LC-MS/MS, non-compartmental analysis); assay type: in vivo, human; conditions: human, whole blood, oral, 150 mg, 150 mg BID, Cycle 1 Day 1 (single dose), blood, N = 3; geometric mean (% CV)
value-kind: Cmax (ng/mL)
Your answer is read as ng/mL, so omit the unit and give the number.

Reported Cmax for CO[C@@H](C)Cn1c(=O)n(C)c2cnc3ccc(-c4cncc(C(C)(C)O)c4)cc3c21 was 792

---

test: Blood pharmacokinetics (dried blood spot LC-MS/MS, non-compartmental analysis); type: in vivo, human; conditions: human, whole blood, oral, 150 mg, 150 mg BID, Cycle 1 Day 1 (single dose), blood, N = 3; geometric mean (range); read-out: t1/2 (converted)
value-kind: half-life
I'd appreciate it if you included the unit after the number.

Reported half-life for CO[C@@H](C)Cn1c(=O)n(C)c2cnc3ccc(-c4cncc(C(C)(C)O)c4)cc3c21 [LY3023414] was 1.59 h
